# experimentalSystem: Human RORγ Ligand Binding Domain (RORγ-LBD) (Homo sapiens)
# Construct: made in house; host or cells: E. coli BL21(DE3), modified pET21a
# Sequence (P51449 263-518): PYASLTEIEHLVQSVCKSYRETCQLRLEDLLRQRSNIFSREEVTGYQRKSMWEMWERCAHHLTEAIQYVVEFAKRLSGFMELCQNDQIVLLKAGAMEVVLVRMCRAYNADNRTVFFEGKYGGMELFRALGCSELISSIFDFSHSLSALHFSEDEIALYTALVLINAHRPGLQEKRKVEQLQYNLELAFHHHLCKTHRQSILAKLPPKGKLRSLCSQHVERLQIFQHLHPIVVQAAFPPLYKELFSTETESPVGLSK
# testDetails: Dual Fluorescence Energy Transfer (FRET) assay, RORγ-LBD / SRC1(2) co-activator peptide interaction
# Type: biochemical
# particulars: mean of multiple test results if tested more than once; read-out: pIC50 in the dual FRET assay (converted)
Counter-ions that a name gives are not always drawn.
quantityName: IC50

Cc1ccc(C(=O)Nc2cc(F)cc(CN3CCN(C(=O)[C@H]4C[C@@H](C)C4)[C@@H](C)C3)c2C)cn1 [Example 185] ... ~79.4 nM

Short answer on Human RORγ Ligand Binding Domain (RORγ-LBD) (Homo sapiens) for Cc1c(CN2CCN(C(=O)C3CCCC3)[C@@H](C)C2)cc(Cl)cc1NC(=O)c1cccc(C#N)c1 [Example 193, trifluoroacetic acid salt] , IC50: ~63.1 nM

Short answer on Human RORγ Ligand Binding Domain (RORγ-LBD) (Homo sapiens) for Cc1ccc(C(=O)Nc2cc(Cl)cc(CN3CCN(C(=O)CC4CC4)[C@@H](C)C3)c2C)cn1 [Example 184] , IC50: ~200 nM

Short answer on Human RORγ Ligand Binding Domain (RORγ-LBD) (Homo sapiens) for Cc1ncc(C(=O)Nc2cc(F)cc(CN3CCN(C(=O)C4CCCC4)[C@@H](C)C3)c2C)cn1 [Example 20] , IC50: ~100 nM

Short answer on Human RORγ Ligand Binding Domain (RORγ-LBD) (Homo sapiens) for Cc1ccc(C(=O)Nc2cc(F)cc(CN3CCN(C(=O)[C@H]4C[C@H](C)C4)[C@@H](C)C3)c2C)cn1 [Example 186] , IC50: ~79.4 nM

Short answer on Human RORγ Ligand Binding Domain (RORγ-LBD) (Homo sapiens) for Cc1ccc(C(=O)Nc2cc(Cl)cc(CN3CCN(C(=O)[C@H]4C[C@H](C)C4)[C@@H](C)C3)c2C)cn1 [Example 188] , IC50: ~63.1 nM

Short answer on Human RORγ Ligand Binding Domain (RORγ-LBD) (Homo sapiens) for Cc1cc(C(=O)Nc2cc(Cl)cc(CN3CCN(C(=O)C4CCCC4)[C@@H](C)C3)c2C)ccn1 [Example 187] , IC50: ~126 nM

Short answer on Human RORγ Ligand Binding Domain (RORγ-LBD) (Homo sapiens) for Cc1c(CN2CCN(C(=O)C3CCCC3)[C@@H](C)C2)cc(F)cc1NC(=O)c1cccc(C#N)c1 [Example 66] , IC50: ~39.8 nM

Short answer on Human RORγ Ligand Binding Domain (RORγ-LBD) (Homo sapiens) for Cc1ncc(C(=O)Nc2cc(Cl)cc(CN3CCN(C(=O)[C@H]4C[C@@H](C)C4)[C@@H](C)C3)c2C)cn1 [Example 190, trifluoroacetic acid salt] , IC50: ~158 nM

Short answer on Human RORγ Ligand Binding Domain (RORγ-LBD) (Homo sapiens) for Cc1ncc(C(=O)Nc2cc(Cl)cc(CN3CCN(C(=O)[C@H]4C[C@H](C)C4)[C@@H](C)C3)c2C)cn1 [Example 191, trifluoroacetic acid salt] , IC50: ~251 nM

Short answer on Human RORγ Ligand Binding Domain (RORγ-LBD) (Homo sapiens) for Cc1ccc(C(=O)Nc2cc(Cl)cc(CN3CCN(C(=O)[C@H]4C[C@@H](C)C4)[C@@H](C)C3)c2C)cn1 [Example 189] , IC50: ~50.1 nM

Where these numbers come from: patent US10005731B2
